Source: patent US20250263469A1

Target: SARS-CoV-2 Spike on pseudotyped virus (PsV) (SARS-CoV-2, UniProt P0DTC2 14-1273)
Assay: cell-based or functional assay
readout_name: IC50 SARS-CoV2 PsV, IgG

binder	result
mAb 254 (antibody, V domains shown) VH: EVQLLESGGGLVQPGGSLRLSCAASGFTFSSSAMHWVRQAPGKGLEWVSAIGTGGDTYYADSVKGRFTISRDNSKNTLYLQMNSLRAEDTAVYYCAREGDGYNFYFDYWGQGTLVTVSS VL: DIQMTQSPSSLSASVGDRVTITCRASQGISSYLAWYQQKPGKAPKLLIYDASSLQIGVPSRFSGSGSGTDFTLTISSLQPEDFATYYCLQSYSTPPWTFGQGTKVEIKR	> 50 µg/mL
mAb 108 (antibody, V domains shown) VH: QVQLVQSGAEVKKPGASVKVSCKASGYIFSRYAIHWVRQAPGQGLEWMGWMNPISGNTDYAPNFQGRVTMTRDTSTSTVYMELSSLRSEDTAVYYCAKDGSQLAYLVEYFQHWGQGTLVTVSS VL: DIQMTQSPSSLSASVGDRVTITCRASQVITNNLAWYQQKPGKAPKLLIYDASTLETGVPSRFSGSGSGTDFTLTISSLQPEDFATYYCQQSYTFPYTFGQGTKVEIKR	> 50 µg/mL
mAb 52 (antibody, V domains shown) VH: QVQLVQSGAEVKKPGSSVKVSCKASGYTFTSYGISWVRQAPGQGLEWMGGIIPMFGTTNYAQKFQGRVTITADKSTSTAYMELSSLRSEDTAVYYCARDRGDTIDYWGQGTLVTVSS VL: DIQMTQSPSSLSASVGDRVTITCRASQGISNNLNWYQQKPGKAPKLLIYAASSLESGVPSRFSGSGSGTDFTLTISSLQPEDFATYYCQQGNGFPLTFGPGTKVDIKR	0.55 µg/mL
